B1: SCNN1D (parent)
chain: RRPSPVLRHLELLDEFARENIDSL

Variants of: B1
Test: protein stability index of a GFP-peptide fusion (GPS, HEK-293T) (PSI 1-6); higher = more stable;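 also: lentivirally expressed fusions sorted by FACS into six bins by GFP to DsRed ratio, PSI derived from sequencing read proportions per bin multiplied by bin number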
Conditions: c terminus: a fixed tail appended
Reported protein stability index values are given for each entry in this list.

SEQUENCE_CHANGE | protein stability index
D14L | 2.86
N20E | 1.88
E15R | 2.72
S4N | 2.34
S4H | 2.14
D22R | 2.76
D22W | 1.68
R8E | 4.4
L12E | 4.08
P5G | 3.53
P5L | 2.06
I21L | 2.95
S23L | 2.72
R18C | 2.48
H9G | 3.76
L12A | 3.81
L7M | 2.9
L24V | 2.67
H9E | 3.99
E11N | 3.5
E11Y | 2.25
S4Q | 3.89
N20V | 2.54
P5W | 1.93
L24G | 3.06
L10K | 4.33
D14A | 1.67
R18G | 3.6
D22M | 1.47
S23N | 2.94
E19T | 3.16
R18M | 2.98
N20C | 2.33
P3A | 2.35
D22V | 2.03
R1P | 2.58
D22E | 2.99
R18K | 3.67
F16E | 3.63
E11L | 1.41
N20G | 2.88
D22T | 2.18
D22N | 3.12
S23I | 2.26
E15W | 2.05
E19D | 2.73
V6C | 2.72
L10P | 3.56
F16S | 4.57
D22Y | 1.8
L13D | 4.57
R2V | 2.93
L13F | 3.14
E11V | 2.56
R8F | 2.61
L12S | 4.4
L24T | 3.3
P3E | 2.38
L12H | 4.25
P5K | 3.59
R8Q | 4.09
H9P | 3.95
F16H | 3.77
P5R | 3.63
R2G | 3.52
L12K | 4.1
L10A | 3.84
